Tgt: Phosphodiesterase 4 (Homo sapiens, UniProt P27815+Q08499+Q07343+Q08493)
Method notes: Inhibition of Rolipram binding to PDE4 at 1 uM
Type: protein assay
This listing pairs molecules with measured inhibition.
Parameter measured: inhibition (%)

1. CCn1cc(C(=O)NC2CCc3cc(OC)c(OC)cc32)c(=O)c2cc(C(F)(F)F)ccc21 (stereo not given)    22
2. CCn1cc(C(=O)NC2CCc3cc(NC(C)=O)ccc32)c(=O)c2cnc(N3CCCC3)nc21 (stereo not given)    17
3. CCn1cc(C(=O)NCCc2ccccc2)c(=O)c2cc(C(F)(F)F)ccc21    8
4. CCn1cc(C(=O)NCCc2ccncc2)c(=O)c2cnc(N3CCCC3)nc21    11
5. CCn1cc(C(=O)NCCc2ccncc2)c(=S)c2cc(C(F)(F)F)ccc21    15

Every entry's value here was drawn from ChEMBL document CHEMBL1130589.
